- assayed_system: PknB (His-PknB) (Trueperella pyogenes, UniProt A0ABV3NC81)
- Sequence (A0ABV3NC81 1-331): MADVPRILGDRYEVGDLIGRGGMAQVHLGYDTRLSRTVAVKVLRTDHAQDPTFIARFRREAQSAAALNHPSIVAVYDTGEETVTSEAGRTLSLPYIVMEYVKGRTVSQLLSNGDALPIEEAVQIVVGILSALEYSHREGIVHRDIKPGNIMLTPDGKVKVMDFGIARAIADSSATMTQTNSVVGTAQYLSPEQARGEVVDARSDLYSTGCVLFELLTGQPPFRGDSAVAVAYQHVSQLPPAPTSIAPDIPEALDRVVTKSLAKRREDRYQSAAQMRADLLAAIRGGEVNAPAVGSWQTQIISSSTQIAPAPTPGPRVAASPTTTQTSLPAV
recorded_endpoint: Kd (µM)
Report the figure in µM without appending any unit label.

**Query** Fetch value of Kd on PknB (His-PknB) (Trueperella pyogenes, UniProt A0ABV3NC81) for O=c1cc(-c2ccc(O)c(O)c2)oc2cc(O)cc(O)c12 .
**Result** 312
